B1: CPEB3 Ribozyme (parent)
chain: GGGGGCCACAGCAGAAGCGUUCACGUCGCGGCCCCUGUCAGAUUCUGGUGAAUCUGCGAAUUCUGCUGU

Variants of: B1
Test: self-cleavage, relative activity (ratio to wild type); higher = more cleavage; co-transcriptional
Class boundaries, taken from values of self-cleavage, are as follows: 1 (below 0.2), 2 (0.2 to below 0.8), 3 (0.8 or more)

Record excerpt, results attached:
GGGUGCCACAGCAGAAGCGUUCACGUCGGGGCCCCUGUCAGAUUCUGGUGAAUCUGCGAAUUCUGCUGU [G4U C29G] ... 1
GGGGGCCACAGCAGAAGCGUUCACGUCGCGUCCCUUGUCAGAUUCUGGUGAAUCUGCGAAUUCUGCUGU [G31U C35U] ... 2
GGGGGCCACAGCAGAAGCGUUCACGUCGCGGCACCUGUCAGAUUCUGGUGAAUCUGCGAAUGCUGCUGU [C33A U62G] ... 2
GGGGGCCAUAGCAGAAGCGUUCACGUCGCGGCCCCUGUCAGAUUCUGGUGAAUCUGCGAAUUCUGCUCU [C9U G68C] ... 3
GGGGGCCACAGCAGAAGCGUUCACGUCGCGGCCCCUGUCAGAUUCUGGUGACUCUGCGACUUCUGCUGU [A52C A60C] ... 2

(Q) Note: place this variant into its band. Item: GGGGGCCACAGCAGAAGCGUUCACGUGGCGGCCCCUGUCAGAUUCUGGUGAAUCUGCGAAUUCUCCUGU [C27G G65C]
(A) 2

(Q) Note: place this variant into its band. Item: GGGUGCCACAGCAGAAGCGUUCACGUCGCGGCCCCUGUCAAAUUCUGGUGAAUCUGCGAAUUCUGCUGU [G4U G41A]
(A) 2

(Q) Note: place this variant into its band. Item: GGGGGCCACAGCAAAAGCGUUCACGUCGCUGCCCCUGUCAGAUUCUGGUGAAUCUGCGAAUUCUGCUGU [G14A G30U]
(A) 2

(Q) Note: place this variant into its band. Item: GGGGGCCACAGCUGAAGCGUUAACGUCGCGGCCCCUGUCAGAUUCUGGUGAAUCUGCGAAUUCUGCUGU [A13U C22A]
(A) 1

(Q) Note: place this variant into its band. Item: GGGGGCCAGAGCAGAAGCGUUCACGUCGCGGCCCCUGUCUGAUUCUGGUGAAUCUGCGAAUUCUGCUGU [C9G A40U]
(A) 3

(Q) Note: place this variant into its band. Item: GGGGGCCACAGCAGAAGCGUUCACGUCGCGGCCCCUGUCAGAUUCCGGUGAAUCUGCGAAUUCUGCUGU [U46C]
(A) 3

(Q) Note: place this variant into its band. Item: GGGGGCCACAGCAGAAGUGUUCACGUCGCGGCCCCUGUCUGAUUCUGGUGAAUCUGCGAAUUCUGCUGU [C18U A40U]
(A) 2

(Q) Note: place this variant into its band. Item: GGGGGCCACAGCAGAAGCGUUCACGUCACGGCCCCUGUCAGAUUCUGGUGACUCUGCGAAUUCUGCUGU [G28A A52C]
(A) 1
